Parameter: melting point. Scope: all listed entries.
Endpoint name: melting point

[[record]]
molecule = "CC(C)Nc1nc(C(N)=S)nc(Cl)c1-c1c(F)cc(F)cc1F [Compound I-4]"
measured_result = "145 to 149 °C"

[[record]]
molecule = "Cc1nc(C(N)=S)nc(NC(C)C)c1-c1c(F)cc(F)cc1F [Compound I-23]"
measured_result = "158 °C"

[[record]]
molecule = "CCN(CC)c1nc(C(N)=S)nc(Cl)c1-c1c(F)cc(F)cc1F [Compound I-19]"
measured_result = "55 to 58 °C"

[[record]]
molecule = "CCC(C)Nc1nc(C(N)=S)nc(Cl)c1-c1c(F)cccc1Cl (stereo not shown) [Compound I-8]"
measured_result = "147 to 150 °C"

